Target: T1, hUCN1 (NT Biotin) (human, UniProt P55089 83-122, biotin at the N-terminus)
T1 construct: also called human UCN1 (NT biotin)
T1 peptide (looked up): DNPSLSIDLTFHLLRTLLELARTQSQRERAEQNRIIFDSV
Assay: ELISA, biotin peptide on streptavidin plate
Result type: EC50 (nM)
Numbers only here, please. The scale is nM.

Tell me measured EC50 for PR302341-55 (antibody, human IgG1, kappa, V domains shown, Humanized, PTM-removed variant of PR302341) VH: QVQLVQSGAEVKKPGASVKVSCKASGYTFTDYFMKWVRQAPGQRLEWMGVINPNNADIFYNQKFKGRVTITRDTSASTAYMELSSLRSEDTAVYYCARGTDRALFAYWGQGTLVTVSS VL: DVVMTQSPLSLPVTLGQPASISCRSGQSIVHSDGNTYLEWYQQRPGQSPRLLIYKVSNRFSGVPDRFSGSGSGTDFTLKISRVEAEDLGVYYCFQGSHIPWTFGGGTKVEIKR please.
0.013

Let me know recorded EC50 for PR302341-28 (antibody, human IgG1, kappa, V domains shown, Humanized, PTM-removed variant of PR302341) VH: QVQLVQSGAEVKKPGASVKVSCKASGYTFTDYFMKWVRQAPGQGLEWMGVINPNQGDIFYNQKFKGRVTMTVDKSISTAYMELSRLRSDDTAVYYCARGTDRALFAYWGQGTLVTVSS VL: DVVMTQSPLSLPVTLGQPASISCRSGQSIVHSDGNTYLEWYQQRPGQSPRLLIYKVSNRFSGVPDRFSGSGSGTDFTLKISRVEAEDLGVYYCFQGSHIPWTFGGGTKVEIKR , thanks.
0.026

Give a short answer stating reported EC50 for PR004290 (antibody, human IgG1, kappa, V domains shown, Series 1; human IgG1 wildtype Fc; also called Hybridoma Clone 28b3) VH: EVQLVESGGVLVQPGGSLRLSCAASGFTFSSYWMTWVRQAPGKGLEWVANIKQDGSEKYYVDSVKGRFTISRDNAKNSLFLQMNSLRAEDTAVYYCARTLIFDYWGQGTLVTVSS VL: DIVMTQSPLSLPVTPGEPASISCRSSQSLLHSTGYNSLEWYLQKPGQSPQLLIYLGSNRASGVPDRFSGSGSGTDFTLKISRVEAEDVGIYYCMQTLQTPITFGQGTRLEIKR .
1.59
